test system: Penicillium italicum; test: Antimicrobial activity against Penicillium italicum RCMB 001018 at 2.5 mg/ml by agar diffusion technique; format: functional; conditions: read-out: DIZ
Each entry below lists one item and its recorded zone of inhibition at 2500 µg/mL value.

compoundSmiles: Oc1ccccc1/C=N\n1c(SCCSc2nnc(-c3cccnc3)n2/N=C\c2ccccc2O)nnc1-c1cccnc1
zone of inhibition at 2500 µg/mL / mm: 0
--
compoundSmiles: Nn1c(SCCSc2nnc(-c3cccnc3)n2N)nnc1-c1cccnc1
zone of inhibition at 2500 µg/mL / mm: 1
--
compoundSmiles: CN(C/C=C/C#CC(C)(C)C)Cc1cccc2ccccc12
zone of inhibition at 2500 µg/mL / mm: 10
--
compoundSmiles: OC1COc2ccccc2/C=N\n2c(nnc2-c2cccnc2)SCCCSc2nnc(-c3cccnc3)n2/N=C\c2ccccc2OC1
zone of inhibition at 2500 µg/mL / mm: 1
--
compoundSmiles: C1=N\n2c(nnc2-c2cccnc2)SCCCCSc2nnc(-c3cccnc3)n2/N=C\c2ccccc2OCCCCOc2ccccc2/1
zone of inhibition at 2500 µg/mL / mm: 0

---

system: Aspergillus fumigatus; test: Antimicrobial activity against Aspergillus fumigatus RCMB 002008 at 5 mg/ml by agar diffusion technique; type: functional; details: read-out: DIZ

compoundSmiles: OC1COc2ccccc2/C=N\n2c(nnc2-c2cccnc2)SCCCCSc2nnc(-c3cccnc3)n2/N=C\c2ccccc2OC1
zone of inhibition at 5000 µg/mL (mm): 0
//
compoundSmiles: Nn1c(SCCCCSc2nnc(-c3cccnc3)n2N)nnc1-c1cccnc1
zone of inhibition at 5000 µg/mL (mm): 0
//
compoundSmiles: S=c1[nH]nc(-c2cccnc2)n1/N=C\c1ccccc1OCCOCCOCCOc1ccccc1/C=N\n1c(-c2cccnc2)n[nH]c1=S
zone of inhibition at 5000 µg/mL (mm): 0
//
compoundSmiles: CN(C/C=C/C#CC(C)(C)C)Cc1cccc2ccccc12
zone of inhibition at 5000 µg/mL (mm): 10

---

Here the recorded zone of inhibition at 2500 µg/mL is given for each entry.
system: Staphylococcus aureus; test: Antimicrobial activity against Staphylococcus aureus RCMB 106001 at 2.5 mg/ml by agar diffusion technique; assay type: functional; conditions: read-out: DIZ

compoundSmiles: Nn1c(SCCCSc2nnc(-c3cccnc3)n2N)nnc1-c1cccnc1
zone of inhibition at 2500 µg/mL: 0 mm
--
compoundSmiles: OC1COc2ccccc2CNn2c(nnc2-c2cccnc2)SCCCSc2nnc(-c3cccnc3)n2NCc2ccccc2OC1
zone of inhibition at 2500 µg/mL: 0 mm
--
compoundSmiles: CN(C/C=C/C#CC(C)(C)C)Cc1cccc2ccccc12
zone of inhibition at 2500 µg/mL: 6 mm
--
compoundSmiles: S=c1[nH]nc(-c2cccnc2)n1/N=C\c1ccccc1OCCOCCOCCOc1ccccc1/C=N\n1c(-c2cccnc2)n[nH]c1=S
zone of inhibition at 2500 µg/mL: 0 mm
--
compoundSmiles: C1=N\n2c(nnc2-c2cccnc2)SCCCCSc2nnc(-c3cccnc3)n2/N=C\c2ccccc2OCCCCOc2ccccc2/1
zone of inhibition at 2500 µg/mL: 1 mm
--
compoundSmiles: S=c1[nH]nc(-c2cccnc2)n1/N=C\c1ccccc1OCCCOc1ccccc1/C=N\n1c(-c2cccnc2)n[nH]c1=S
zone of inhibition at 2500 µg/mL: 1 mm
--
compoundSmiles: S=c1[nH]nc(-c2cccnc2)n1/N=C\c1ccccc1OCCOCCOc1ccccc1/C=N\n1c(-c2cccnc2)n[nH]c1=S
zone of inhibition at 2500 µg/mL: 0 mm
--
compoundSmiles: C1=N\n2c(nnc2-c2cccnc2)SCCCCSc2nnc(-c3cccnc3)n2/N=C\c2ccccc2OCCOCCOCCOc2ccccc2/1
zone of inhibition at 2500 µg/mL: 0 mm
